# System: Staphylococcus aureus
# measurement notes: Antibacterial activity against methicillin resistant Staphylococcus aureus NCTC13616 measured after overnight incubation by microbroth dilution method
# Assay type: functional
value type: MIC (µg/mL)

compound=Cc1c(CNCc2ccccc2)cc(-c2ccc(Cl)cc2)n1-c1ccc(Cl)cc1 u=µg/mL reported_relation== numeric_value=8
compound=COc1ccc(-n2c(-c3ccc(Cl)cc3)cc(CNC3CCCCC3)c2C)cc1 u=µg/mL reported_relation== numeric_value=16
compound="Cc1c(CNC(C)c2ccccc2)cc(-c2ccc(Cl)cc2)n1-c1ccc(Cl)cc1 (stereo not given)" u=µg/mL reported_relation== numeric_value=4
compound=Cc1c(CNC2CCCCC2)cc(-c2ccc(C(C)(C)C)cc2)n1-c1ccc(Cl)cc1 u=µg/mL reported_relation== numeric_value=4
compound=Cc1c(CNC2CCCCC2)cc(-c2ccc(Cl)cc2)n1-c1cccc(F)c1 u=µg/mL reported_relation== numeric_value=8
compound=Cc1c(CNC2CCCCC2)cc(-c2ccc(C(C)C)cc2)n1-c1ccc(Cl)cc1 u=µg/mL reported_relation== numeric_value=4
compound=Cc1c(CNCCCCCCCCNC(=N)N)cc(-c2ccc(Cl)cc2)n1-c1ccc(Cl)cc1 u=µg/mL reported_relation== numeric_value=4
compound=Cc1cc(CNCc2ccccc2)c(C)n1-c1ccc(Cl)cc1 u=µg/mL reported_relation=> numeric_value=128
compound=Cc1c(CNC2CCCCC2)cc(-c2ccc(Cl)cc2)n1-c1ccc(Cl)cc1Cl u=µg/mL reported_relation== numeric_value=4

====

Measured IC50, listed per entry for reference.
# measurement target: DNA gyrase (Staphylococcus aureus, UniProt P0A0K8+P20831, S84L)
# measurement notes: Inhibition of Staphylococcus aureus DNA gyrase S84L mutant
value type: IC50 (µM)

compound="Cc1c(CNC2CCC(NC(=N)N)CC2)cc(-c2ccc(Cl)cc2)n1-c1ccc(Cl)cc1 (stereo not drawn)" numeric_value=15.4
compound=Cc1c(CNC2CCCCCC2)cc(-c2ccc(Cl)cc2)n1-c1ccc(C(C)C)cc1 numeric_value=43.7
compound=Cc1c(CNC2CCCCC2)cc(-c2ccc(C(C)C)cc2)n1-c1ccc(Cl)cc1 numeric_value=69.1

====

# System: Pseudomonas aeruginosa
# measurement notes: Antibacterial activity against Pseudomonas aeruginosa NCTC13437 measured after overnight incubation by microbroth dilution method
# Format: functional
value type: MIC

structure_as_smiles=Cc1ccc(C)c(-n2c(-c3ccc(Cl)cc3)cc(CNC3CCCCC3)c2C)c1 value_type=MIC result="> 128 µg/mL"
structure_as_smiles=Cc1c(CNC2CCCCCC2)cc(-c2ccc(Cl)cc2)n1-c1ccc(F)cc1 value_type=MIC result="> 128 µg/mL"
structure_as_smiles=Cc1c(CNCC2CCCCC2)cc(-c2ccc(Cl)cc2)n1-c1ccc(Cl)cc1 value_type=MIC result="> 128 µg/mL"
structure_as_smiles=Cc1cc(CNC2CCCCC2)c(C)n1-c1ccc(Cl)cc1 value_type=MIC result="> 64 µg/mL"
structure_as_smiles=Cc1c(CNC2CCCCC2)cc(-c2ccc(Cl)cc2)n1-c1ccccc1C(F)(F)F value_type=MIC result="> 128 µg/mL"

====

Measured MIC, listed per entry for reference.
# Test system: Pseudomonas aeruginosa
# measurement notes: Antibacterial activity against Pseudomonas aeruginosa NCTC13437 measured after overnight incubation by microbroth dilution method
# Type: functional
value type: MIC

molecule=Cc1cc(CNCCCCCCCCNC(=N)N)c(C)n1-c1ccc(Cl)cc1 measurement_target="Pseudomonas aeruginosa" result="64 µg/mL"
molecule=Cc1c(CNC2CCCCC2)cc(-c2ccc(Cl)cc2)n1-c1ccc([N+](=O)[O-])cc1 measurement_target="Pseudomonas aeruginosa" result="> 128 µg/mL"
molecule="Cc1c(CNC2CCC(NC(=N)N)CC2)cc(-c2ccc(Cl)cc2)n1-c1ccc(Cl)cc1 (stereo not drawn)" measurement_target="Pseudomonas aeruginosa" result="16 µg/mL"
molecule=Cc1c(CNC2CCCCC2)cc(-c2ccc(C(C)C)cc2)n1-c1ccc(Cl)cc1 measurement_target="Pseudomonas aeruginosa" result="> 128 µg/mL"
molecule=Cc1c(CNCCNc2ccccc2)cc(-c2ccc(Cl)cc2)n1-c1ccc(Cl)cc1 measurement_target="Pseudomonas aeruginosa" result="> 128 µg/mL"
molecule=Cc1c(CNC2CCCCC2)cc(-c2ccc(Cl)cc2)n1-c1ccc(F)cc1 measurement_target="Pseudomonas aeruginosa" result="> 128 µg/mL"
molecule=COc1ccc(-n2c(-c3ccc(Cl)cc3)cc(CNC3CCCCC3)c2C)cc1 measurement_target="Pseudomonas aeruginosa" result="> 128 µg/mL"
molecule=Cc1c(CNC2CCCCCC2)cc(-c2ccc(Cl)cc2)n1-c1ccc(Cl)cc1 measurement_target="Pseudomonas aeruginosa" result="128 µg/mL"
molecule=Cc1c(CNC2CCCCC2)cc(-c2ccc(Cl)cc2)n1-c1ccc(Cl)cc1 measurement_target="Pseudomonas aeruginosa" result="> 128 µg/mL"
molecule=Cc1c(CNC2CCCCC2)cc(-c2ccc(Cl)cc2)n1-c1ccc(O)cc1 measurement_target="Pseudomonas aeruginosa" result="> 128 µg/mL"
molecule="Cc1c(CNC2CCC(O)CC2)cc(-c2ccc(Cl)cc2)n1-c1ccc(Cl)cc1 (stereo not drawn)" measurement_target="Pseudomonas aeruginosa" result="> 128 µg/mL"
molecule="Cc1c(CNC(C)c2ccccc2)cc(-c2ccc(Cl)cc2)n1-c1ccc(Cl)cc1 (stereo not drawn)" measurement_target="Pseudomonas aeruginosa" result="> 128 µg/mL"
molecule=Cc1c(CNC2CCCCCC2)cc(-c2ccc(Cl)cc2)n1-c1ccc(C(C)C)cc1 measurement_target="Pseudomonas aeruginosa" result="> 128 µg/mL"

====

# Tested on: Klebsiella pneumoniae
# measurement notes: Antibacterial activity against Klebsiella pneumoniae M6 measured after overnight incubation in presence of polymyxin B nonapeptide by microbroth dilution method
# Type: functional
Measured MIC, listed per entry for reference.
value type: MIC (µg/mL)

compound=Cc1c(CNC2CCCCC2)cc(-c2ccc(Cl)cc2)n1-c1ccc(Cl)cc1 reported_relation== numeric_value=64
compound="Cc1c(CNC2CCC(NC(=N)N)CC2)cc(-c2ccc(Cl)cc2)n1-c1ccc(Cl)cc1 (stereo not given)" reported_relation== numeric_value=64
compound=Cc1c(CNC2CCCCCC2)cc(-c2ccc(Cl)cc2)n1-c1ccc(C(C)C)cc1 reported_relation=> numeric_value=128
compound=Cc1c(CNC2CCCCC2)cc(-c2ccc(C(C)C)cc2)n1-c1ccc(Cl)cc1 reported_relation== numeric_value=128
compound=Cc1c(CNCc2ccccc2)cc(-c2ccc(Cl)cc2)n1-c1ccc(Cl)cc1 reported_relation== numeric_value=32

====

# measurement target: Topoisomerase IV (Staphylococcus aureus, UniProt P0C1S7+P0C1U9)
# measurement notes: Inhibition of Staphylococcus aureus topoisomerase-4 expressed in Escherichia coli assessed as relaxation of pBR322 substrate measured after 30 mins by agarose gel electrophoresis
Measured IC50, listed per entry for reference.
value type: IC50 (µM)

molecule=C[C@H]1COc2c(N3CCN(C)CC3)c(F)cc3c(=O)c(C(=O)O)cn1c23.C[C@H]1COc2c(N3CCN(C)CC3)c(F)cc3c(=O)c(C(=O)O)cn1c23.O measurement_target="Topoisomerase IV (Staphylococcus aureus, UniProt P0C1S7+P0C1U9)" numeric_value=9.85
molecule="Cc1c(CNC2CCC(NC(=N)N)CC2)cc(-c2ccc(Cl)cc2)n1-c1ccc(Cl)cc1 (configuration not stated)" measurement_target="Topoisomerase IV (Staphylococcus aureus, UniProt P0C1S7+P0C1U9)" numeric_value=61.2

====

# System: Pseudomonas aeruginosa
# measurement notes: Antibacterial activity against Pseudomonas aeruginosa NCTC13437 measured after overnight incubation by microbroth dilution method
# Type: functional
Measured MIC, listed per entry for reference.
value type: MIC

compound=Cc1c(CNCc2ccccc2)cc(-c2ccc(Cl)cc2)n1-c1ccc(Cl)cc1 result="> 128 µg/mL"
compound=Cc1c(CNC2CCCCC2)cc(-c2ccc(Cl)cc2)n1-c1cccc(F)c1 result="> 128 µg/mL"
compound=Cc1c(CNC2CCCCC2)cc(-c2ccc(Cl)cc2)n1-c1ccc(Cl)cc1Cl result="> 128 µg/mL"
compound=Cc1c(CNC2CCCCC2)cc(-c2ccc(C(C)(C)C)cc2)n1-c1ccc(Cl)cc1 result="> 128 µg/mL"
compound="Cc1c(CNC2C3CC4CC(C3)CC2C4)cc(-c2ccc(Cl)cc2)n1-c1ccc(Cl)cc1 (stereo not given)" result="> 128 µg/mL"
compound="Cc1c(CNC2CCC(N)CC2)cc(-c2ccc(Cl)cc2)n1-c1ccc(Cl)cc1 (stereo not given)" result="32 µg/mL"
compound=Cc1c(CNCCCCCCCCNC(=N)N)cc(-c2ccc(Cl)cc2)n1-c1ccc(Cl)cc1 result="64 µg/mL"
compound=Cc1c(CNC(C)C)cc(-c2ccc(Cl)cc2)n1-c1ccc(Cl)cc1 result="> 128 µg/mL"
compound=Cc1c(CNC2CCCCC2)cc(-c2ccc(F)cc2)n1-c1ccc(Cl)cc1 result="> 128 µg/mL"
compound="Cc1c(CNC2CCC(NC(=N)N)CC2)cc(-c2ccc(Cl)cc2)n1-c1ccc([N+](=O)[O-])cc1 (stereo not given)" result="> 128 µg/mL"

Origin of the recorded values: ChEMBL document CHEMBL4359823
